Target: T1, F508del-2PT-NBD1 (Homo sapiens, UniProt P13569, A534P/DEL508-508/I539T/S492P/V470M)
T1 construct: His6-SUMO (N, cleaved yes); made in house; host or cells: Escherichia coli BL21(DE3) pLysS
T1 sequence (P13569 with tags, fused parts or gaps V470M/S492P/DEL508-508/A534P/I539T limits assumed): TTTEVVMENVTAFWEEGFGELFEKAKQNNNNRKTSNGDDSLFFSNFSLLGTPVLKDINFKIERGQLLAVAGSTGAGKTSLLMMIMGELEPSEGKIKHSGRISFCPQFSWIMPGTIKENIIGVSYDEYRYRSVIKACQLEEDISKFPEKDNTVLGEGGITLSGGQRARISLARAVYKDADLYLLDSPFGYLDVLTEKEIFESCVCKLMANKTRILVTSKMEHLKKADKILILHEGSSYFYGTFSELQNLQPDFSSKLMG
Assay: NBD1 ELISA dose-response, nanobody binding to immobilized F508del-2PT-NBD1
Settings: F508del-2PT-NBD1 versus 2PT-NBD1
Readout Type: effect of F508del mutation on binding

Some solved cases for reference:
{"Molecule": "T8: nanobody, SEQ ID NO:7, binds epitope 2 including F508, stabilizes WT CFTR but not F508del (protein, T8 Nanobody amino acid sequence) VHH: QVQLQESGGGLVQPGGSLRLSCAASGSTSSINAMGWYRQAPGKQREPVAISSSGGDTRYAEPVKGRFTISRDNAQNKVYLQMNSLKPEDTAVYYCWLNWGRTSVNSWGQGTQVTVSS", "Readout Type": "effect of F508del mutation on binding", "Experimental Value": "drastically affected"}
{"Molecule": "T4: nanobody, SEQ ID NO:6, binds epitope 2 including F508, stabilizes wild type CFTR (protein, T4 Nanobody amino acid sequence) VHH: QVQLQESGGGLVQAGGSLRLSCAASGSTFAIIAMGWYRQAPGKQRELVAVISTGDTRYADSVKGRFTISRDNAKNTVYLQMDSLRPEDTAVYYCNAAVQVRDYRNYWGQGTQVTVSS", "Readout Type": "effect of F508del mutation on binding", "Experimental Value": "drastically affected"}
{"Molecule": "D12: NBD1-specific CFTR-stabilizing nanobody, SEQ ID NO:2, binds epitope 1 (protein, D12 Nanobody amino acid sequence) VHH: QVQLQESGGGLVQAGSSLRLACAATGSIRSINNMGWYRQAPGKQRGMVAIITRVGNTDYADSVKGRFTISRDNAKNTVYLQMNSLKPEDTATYYCHAEITEQSRPFYLTDDYWGQGTQVTVSS", "Readout Type": "effect of F508del mutation on binding", "Experimental Value": "not affected"}
{"Molecule": "T27: NBD1-specific CFTR-stabilizing nanobody, SEQ ID NO:4, binds epitope 1 (protein, T27 Nanobody amino acid sequence) VHH: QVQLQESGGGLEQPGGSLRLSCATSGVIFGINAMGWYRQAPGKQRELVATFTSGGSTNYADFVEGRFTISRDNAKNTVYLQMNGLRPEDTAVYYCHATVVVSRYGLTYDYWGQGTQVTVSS", "Readout Type": "effect of F508del mutation on binding", "Experimental Value": "not affected"}

Continue with the molecule presented below.
Q: Which measured effect of F508del mutation on binding value corresponds to T2a: NBD1-specific CFTR-stabilizing nanobody, SEQ ID NO:3, binds epitope 1 (protein, T2a Nanobody amino acid sequence) VHH: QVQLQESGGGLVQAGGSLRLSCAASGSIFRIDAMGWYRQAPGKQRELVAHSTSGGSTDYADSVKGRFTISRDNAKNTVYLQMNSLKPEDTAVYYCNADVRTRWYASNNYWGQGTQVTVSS ?
Result: not affected
